Source: ChEMBL document CHEMBL1155262

Some compounds, each annotated with its measured Activity.
Tested on: Mus musculus
assay-summary: Neurotoxicity against ip dosed mouse CF1 albino assessed as minimal motor impairment after 0.5 hrs by rotord test
Type: toxicity, organism-based
condition-notes: in vivo
metric-name: Activity (mg/kg)

[[record]]
query_smiles = "CCCOc1c(C(=O)N/N=C/c2ccccc2OC)sc(C(=O)N/N=C/c2ccccc2OC)c1OCCC"
metric_name = "Activity"
result_value = 100

[[record]]
query_smiles = "COc1cc(/C=N/NC(=O)c2sc(C(=O)N/N=C/c3cc(OC)c(OC)c(OC)c3)c3c2OCCO3)cc(OC)c1OC"
metric_name = "Activity"
result_value = 300

[[record]]
query_smiles = "CCCOc1c(C(=O)N/N=C/c2cc([N+](=O)[O-])ccc2Br)sc(C(=O)N/N=C/c2cc([N+](=O)[O-])ccc2Br)c1OCCC"
metric_name = "Activity"
result_value = 300

[[record]]
query_smiles = "CCCOc1c(C(=O)N/N=C/c2ccc(N(C)C)cc2)sc(C(=O)N/N=C/c2ccc(N(C)C)cc2)c1OCCC"
metric_name = "Activity"
result_value = 100

[[record]]
query_smiles = "CCCOc1c(C(=O)N/N=C/c2ccc(C(=O)O)cc2)sc(C(=O)N/N=C/c2ccc(C(=O)O)cc2)c1OCCC"
metric_name = "Activity"
result_value = 100

